I'd appreciate it if you could supply melting point values for the items below.
Structures can show the parent of a compound that is named as a salt.

query: Consider the compound Cc1c(F)cc(C(=O)NCC2CCN(CC3(O)CCOCC3)CC2)c(=O)n1C(C)C [Example 5] and give its measured melting point.
result: 133 °C (dec.)

query: Consider the compound Cc1c(Br)cc(C(=O)NCC2CCN(CC3(O)CCOCC3)CC2)c(=O)n1C(C)C (as salt: salt) [Example 4] and give its measured melting point.
result: 205 °C (dec.)

query: Consider the compound Cc1c(Cl)cc(C(=O)NCC2CCN(CC3CCCCC3)CC2)c(=O)n1C(C)C [Example 6] and give its measured melting point.
result: 168 °C (dec.)

query: Consider the compound CCc1c(Cl)cc(C(=O)NCC2CCN(CC3(O)CCOCC3)CC2)c(=O)n1C(C)C (as salt: salt) [Example 2] and give its measured melting point.
result: 123 °C (dec.)

query: Consider the compound Cc1cc(C(=O)NCC2CCN(CC3(O)CCOCC3)CC2)c(=O)n(C(C)C)c1C (as salt: salt) [Example 3] and give its measured melting point.
result: 178 °C (dec.)

query: Consider the compound Cc1c(Cl)cc(C(=O)NCC2CCN(CC3(O)CCOCC3)CC2)c(=O)n1C(C)C (as salt: hydrochloride) [Example 1] and give its measured melting point.
result: 283 °C (dec.)

query: Consider the compound Cc1c(Cl)cc(C(=O)NCC2CCN(CC3(O)CCCCC3)CC2)c(=O)n1C(C)C [Example 7] and give its measured melting point.
result: 187 °C (dec.)
